Reference for the values: the Human Domainome abundance scans (Beltran et al. 2025)

B1: COUP transcription factor 1, residues 83 to 159; numbered along this chain, P10589 (parent)
chain: HIECVVCGDKSSGKHYGQFTCEGCKSFFKRSVRRNLTYTCRANRNCPIDQHHRNQCQYCRLKKCLKVGMRREAVQRG

Variants of: B1
measurement_description: abundance fitness (aPCA) (normalised: wild type 0, dead -1); higher = more abundant; growth selection in yeast, the domain comes from the species named
conditions: Homo sapiens

[
  {
    "sequence_change": "K66S",
    "abundance fitness": 0.074
  },
  {
    "sequence_change": "K62W",
    "abundance fitness": -0.162
  },
  {
    "sequence_change": "G77C",
    "abundance fitness": -0.096
  },
  {
    "sequence_change": "R53N",
    "abundance fitness": -0.044
  },
  {
    "sequence_change": "R70P",
    "abundance fitness": -0.161
  },
  {
    "sequence_change": "R60S",
    "abundance fitness": -0.56
  },
  {
    "sequence_change": "E22M",
    "abundance fitness": 0.01
  },
  {
    "sequence_change": "T20K",
    "abundance fitness": -0.868
  },
  {
    "sequence_change": "N54T",
    "abundance fitness": -0.059
  },
  {
    "sequence_change": "K66H",
    "abundance fitness": -0.103
  },
  {
    "sequence_change": "Q50K",
    "abundance fitness": 0.097
  },
  {
    "sequence_change": "N43A",
    "abundance fitness": 0.152
  },
  {
    "sequence_change": "R70I",
    "abundance fitness": 0.046
  },
  {
    "sequence_change": "R60E",
    "abundance fitness": -0.503
  },
  {
    "sequence_change": "K25F",
    "abundance fitness": 0.168
  },
  {
    "sequence_change": "F27D",
    "abundance fitness": -0.783
  },
  {
    "sequence_change": "F28S",
    "abundance fitness": -0.813
  },
  {
    "sequence_change": "R44P",
    "abundance fitness": -0.405
  },
  {
    "sequence_change": "K62C",
    "abundance fitness": -0.257
  },
  {
    "sequence_change": "Q75Y",
    "abundance fitness": -0.219
  },
  {
    "sequence_change": "A42T",
    "abundance fitness": -0.256
  }
]
